Data origin: patent US10076519B2

- Test system: rabbit skeletal myofibrils (fast skeletal myofibrils)
- protocolText: Activation of fast skeletal myofibrils (PUMA assay, PK/LDH-coupled ATPase at pCa25)
- Assay type: biochemical
- testContext: median AC1.4 reported as class; procedure of Example 39
reportedEndpoint: Mean AC1.4

{"columns": ["compound", "targetOrTestSystem", "Mean AC1.4"],
 "data": [
  ["O=C(NC1CCOCC1)c1cccc(-c2ccc(NC[C@]3(c4ncccc4F)C[C@H](F)C3)nn2)c1", "rabbit skeletal myofibrils (fast skeletal myofibrils)", "B (B=1-10 uM)"],
  ["CN1CC(NC(=O)c2ccc(F)c(-c3ccc(NC[C@]4(c5ncccc5F)C[C@H](F)C4)nn3)c2)C1", "rabbit skeletal myofibrils (fast skeletal myofibrils)", "B (B=1-10 uM)"],
  ["O=C(O)c1cc(-c2ccc(NC[C@]3(c4ncccc4F)C[C@H](F)C3)nn2)ccc1O", "rabbit skeletal myofibrils (fast skeletal myofibrils)", "B (B=1-10 uM)"],
  ["O=S1(=O)CCN(Cc2cnc(-c3ccc(NCC4(c5ncccc5F)CCC4)nn3)s2)CC1", "rabbit skeletal myofibrils (fast skeletal myofibrils)", "D (D=>20 uM)"],
  ["O=c1cc(-c2ccc(NCC3(c4ncccc4F)CCC3)nn2)nc2cc[nH]n12", "rabbit skeletal myofibrils (fast skeletal myofibrils)", "B (B=1-10 uM)"],
  ["O=C1NCc2ccc(-c3ccc(NC[C@]4(c5ncccc5F)C[C@H](F)C4)nn3)cc21", "rabbit skeletal myofibrils (fast skeletal myofibrils)", "B (B=1-10 uM)"]
]}

Summary for this compound, `O=C(N[C@@H]1CCOC1)c1cccc(-c2ccc(NC[C@]3(c4ncccc4F)C[C@H](F)C3)nn2)c1` : Mean AC1.4 is B (B=1-10 uM)

Summary for this compound, `C[C@H](N)C(=O)N[C@@H](C)C(=O)OCC(=O)NCc1cnc(-c2ccc(NCC3(c4ncccc4F)CCC3)nn2)s1` : Mean AC1.4 is A (A=<1 uM)

Summary for this compound, `O=C(O)Cc1cnc(-c2ccc(NC[C@]3(c4ncccc4F)C[C@H](F)C3)nn2)s1` : Mean AC1.4 is B (B=1-10 uM)

Summary for this compound, `O=C(O)CCc1cnc(-c2ccc(NCC3(c4ncccc4F)CCC3)nn2)s1` : Mean AC1.4 is B (B=1-10 uM)
